experiment: Cytotoxicity against human CRL7065 cells after 96 hrs by MTT assay; type: cell-based, CRL-7065
Recorded CC50 at 96 h by entry
Please give a number only; it is taken to be in µM.

compound=O=c1[nH]c2cc3cccnc3c(Cl)c2nc1-c1ccccc1 readout_label="CC50 at 96 h" numeric_value=16

Consider the additional compound presented here.
Q: Entry CC[C@@]1(O)C(=O)OCc2c1cc1n(c2=O)Cc2cc3ccccc3nc2-1 [CAMPTOTHECIN] has what CC50 at 96 h?
Result: 0.3

###

system: DU-145; experiment: Cytotoxicity against human DU145 cells after 96 hrs by MTT assay; assay type: functional; details: DU-145, 96 h
Recorded CC50 by entry

# example entries with known answers
compound=O=[N+]([O-])c1ccc(-c2nc3cc4cccnc4c(Cl)c3[nH]2)cc1 measurement_target=DU-145 result="> 100 µM"
compound=O=c1[nH]c2cc3cccnc3c(Cl)c2nc1-c1ccccc1 measurement_target=DU-145 result="7.4 µM"
compound=O=c1[nH]c2cc3cccnc3c(Cl)c2nc1Cc1ccccc1 measurement_target=DU-145 result="≥ 100 µM"

Q: Entry CC[C@@]1(O)C(=O)OCc2c1cc1n(c2=O)Cc2cc3ccccc3nc2-1 [CAMPTOTHECIN] has what CC50?
Result: 0.015 µM

###

Recorded CC50 by entry
test: Cytotoxicity against BHK21 cells after 48 to 96 hrs by MTT assay; type: cell-based, Mesocricetus auratus, BHK-21; details: hamster

Q: Entry Clc1c2ncccc2cc2nc(-c3ccccc3)c(-c3ccccc3)nc12 has what CC50?
Result: > 100 µM

Q: Subsequent entry: O=c1[nH]c2cc3cccnc3c(Cl)c2nc1-c1ccccc1
Result: > 100 µM

Q: Subsequent entry: O=C(CCl)Cn1nnc2cc3cccnc3c(Cl)c21
Result: 65 µM

Q: Subsequent entry: Clc1c2ncccc2cc2nc(-c3ccccc3)[nH]c12
Result: 35 µM

Q: Subsequent entry: c1cnc2cc3[nH]nnc3cc2c1
Result: > 100 µM

Q: Subsequent entry: O=[N+]([O-])c1ccc(-c2nc3cc4cccnc4c(Cl)c3[nH]2)cc1
Result: > 100 µM

Q: Subsequent entry: [O-][n+]1n[nH]c2c(Cl)c3nccc(O)c3cc21
Result: > 100 µM

Q: Subsequent entry: Oc1ccnc2c(Cl)c3nccnc3cc12
Result: 85 µM

Q: Subsequent entry: O=[N+]([O-])c1ccc(-c2nc3cc4cccnc4cc3[nH]2)cc1
Result: > 100 µM

Q: Subsequent entry: Oc1ccnc2c(Cl)c3[nH]nnc3cc12
Result: > 100 µM

###

test: Cytotoxicity against MDBK cells after 48 to 96 hrs by MTT assay; type: cell-based, Bos taurus; settings: cattle
Readout label: CC50

# example entries with known answers
molecule="CCOC(=O)C(C)c1nc2c(Cl)c3ncccc3cc2[nH]c1=O (stereo unspecified)" result="> 100 µM"
molecule=c1cnc2cc3nccnc3cc2c1 result="> 100 µM"
molecule=[O-][n+]1n[nH]c2c(Cl)c3ncccc3cc21 result="> 100 µM"
molecule=C[C@@]1(O)[C@H](O)[C@@H](CO)O[C@H]1n1cnc2c(=O)[nH]c(N)nc21 result="> 10 µM"
molecule=Clc1c2ncccc2cc2nc(C3CCCCC3)[nH]c12 result="73 µM"

Q: Entry O=c1[nH]c2c(Cl)c3ncccc3cc2nc1-c1ccccc1 has what CC50?
Result: > 100 µM

Q: Subsequent entry: CC(C)c1nc2c(Cl)c3ncccc3cc2[nH]c1=O
Result: > 100 µM

Q: Subsequent entry: CC(=O)Nc1ccc(-c2nc3cc4cccnc4c(Cl)c3[nH]2)cc1
Result: > 100 µM

Q: Subsequent entry: Oc1ccnc2c(Cl)c3nccnc3cc12
Result: 63 µM

Q: Subsequent entry: O=C(CCl)Cn1nnc2c(Cl)c3ncccc3cc21
Result: 53 µM

Q: Subsequent entry: O=[N+]([O-])c1ccc(-c2nc3cc4cccnc4c(Cl)c3[nH]2)cc1
Result: > 100 µM
